Test: Apparent permeability in MDCK cells by Monolayer assay
Type: ADME, cell-based, Canis lupus familiaris
Conditions: dog
OUTCOME_MEASURE: Papp (×10⁻⁶ cm/s)
Report only the number, with the unit ×10⁻⁶ cm/s understood.

Worked cases, Papp given:
CN[C@H](CNc1cc(F)c(S(=O)(=O)Nc2ncc(F)s2)cc1Cl)Cc1ccccc1	8
CN[C@H](CNc1cc(F)c(S(=O)(=O)Nc2ncc(F)s2)cc1Cl)CC1CCC1	5
CN[C@H](CNc1cc(F)c(S(=O)(=O)Nc2nccs2)cc1Cl)Cc1ccccc1	10
O=S(=O)(Nc1nccs1)c1cc(Cl)c(NCC2(Cc3ccccc3)CCCN2)cc1F (stereo not drawn)	13
CN[C@H](CNc1cc(F)c(S(=O)(=O)Nc2ncc(F)s2)cc1Cl)CC1(C)CC1	7
CN[C@H](CNc1cc(F)c(S(=O)(=O)Nc2ncc(F)s2)cc1Cl)CC1CC1	3
CN[C@H](CNc1cc(F)c(S(=O)(=O)Nc2ncc(F)s2)cc1Cl)CC12CC(C1)C2	10

Here's the next entry for you.
Q) What Papp value was documented for this molecule, "CN[C@H](CNc1cc(F)c(S(=O)(=O)Nc2ncc(F)s2)cc1Cl)CC(C)(C)C.Cl" ?
A) 8

====

Test: Half life in rhesus monkey
Format: ADME, Macaca mulatta
Details: in vivo
OUTCOME_MEASURE: half-life (h)
Answer in h, number only, no unit symbol.

Q) For the molecule shown here, "CN[C@H](CNc1cc(F)c(S(=O)(=O)Nc2ncc(F)s2)cc1Cl)CC(C)(C)C.Cl" , give the reported half-life.
A) 1.3

====

System: P-glycoprotein
Experiment: Substrate activity at rat p-glycoprotein assessed as efflux ratio of permeability across basal to apical membrane over apical to basal membrane
Type: ADME
Details: not told
OUTCOME_MEASURE: efflux ratio

Q) # input compound: "CN[C@H](CNc1cc(F)c(S(=O)(=O)Nc2ncc(F)s2)cc1Cl)CC(C)(C)C.Cl" ; wanted: its efflux ratio
A) > 14

====

Assay: Drug concentration in plasma of formalin-induced C57BL/6 mouse model of formalin-induced pain at 100 mg/kg, po pretreated with compound for 15 mins followed by formalin challenge and measured after […]
Type: ADME, organism-based
OUTCOME_MEASURE: concentration at 1.75 h (µM)
Report only the number, with the unit µM understood.

Q) Return reported concentration at 1.75 h; argument: "CN[C@H](CNc1cc(F)c(S(=O)(=O)Nc2ncc(F)s2)cc1Cl)CC(C)(C)C.Cl"
A) 6.64

====

Experiment: Oral bioavailability in rhesus monkey
Assay type: ADME, organism-based, Macaca mulatta
Conditions: in vivo
OUTCOME_MEASURE: bioavailability (%)
Your answer should be a plain number; it is taken to be in %.

Q) What value of measured bioavailability is listed for "CN[C@H](CNc1cc(F)c(S(=O)(=O)Nc2ncc(F)s2)cc1Cl)CC(C)(C)C.Cl" ?
A) 2

====

Target: Sodium channel protein type 9 subunit alpha (Homo sapiens, UniProt Q15858)
Sequence (Q15858 whole entry): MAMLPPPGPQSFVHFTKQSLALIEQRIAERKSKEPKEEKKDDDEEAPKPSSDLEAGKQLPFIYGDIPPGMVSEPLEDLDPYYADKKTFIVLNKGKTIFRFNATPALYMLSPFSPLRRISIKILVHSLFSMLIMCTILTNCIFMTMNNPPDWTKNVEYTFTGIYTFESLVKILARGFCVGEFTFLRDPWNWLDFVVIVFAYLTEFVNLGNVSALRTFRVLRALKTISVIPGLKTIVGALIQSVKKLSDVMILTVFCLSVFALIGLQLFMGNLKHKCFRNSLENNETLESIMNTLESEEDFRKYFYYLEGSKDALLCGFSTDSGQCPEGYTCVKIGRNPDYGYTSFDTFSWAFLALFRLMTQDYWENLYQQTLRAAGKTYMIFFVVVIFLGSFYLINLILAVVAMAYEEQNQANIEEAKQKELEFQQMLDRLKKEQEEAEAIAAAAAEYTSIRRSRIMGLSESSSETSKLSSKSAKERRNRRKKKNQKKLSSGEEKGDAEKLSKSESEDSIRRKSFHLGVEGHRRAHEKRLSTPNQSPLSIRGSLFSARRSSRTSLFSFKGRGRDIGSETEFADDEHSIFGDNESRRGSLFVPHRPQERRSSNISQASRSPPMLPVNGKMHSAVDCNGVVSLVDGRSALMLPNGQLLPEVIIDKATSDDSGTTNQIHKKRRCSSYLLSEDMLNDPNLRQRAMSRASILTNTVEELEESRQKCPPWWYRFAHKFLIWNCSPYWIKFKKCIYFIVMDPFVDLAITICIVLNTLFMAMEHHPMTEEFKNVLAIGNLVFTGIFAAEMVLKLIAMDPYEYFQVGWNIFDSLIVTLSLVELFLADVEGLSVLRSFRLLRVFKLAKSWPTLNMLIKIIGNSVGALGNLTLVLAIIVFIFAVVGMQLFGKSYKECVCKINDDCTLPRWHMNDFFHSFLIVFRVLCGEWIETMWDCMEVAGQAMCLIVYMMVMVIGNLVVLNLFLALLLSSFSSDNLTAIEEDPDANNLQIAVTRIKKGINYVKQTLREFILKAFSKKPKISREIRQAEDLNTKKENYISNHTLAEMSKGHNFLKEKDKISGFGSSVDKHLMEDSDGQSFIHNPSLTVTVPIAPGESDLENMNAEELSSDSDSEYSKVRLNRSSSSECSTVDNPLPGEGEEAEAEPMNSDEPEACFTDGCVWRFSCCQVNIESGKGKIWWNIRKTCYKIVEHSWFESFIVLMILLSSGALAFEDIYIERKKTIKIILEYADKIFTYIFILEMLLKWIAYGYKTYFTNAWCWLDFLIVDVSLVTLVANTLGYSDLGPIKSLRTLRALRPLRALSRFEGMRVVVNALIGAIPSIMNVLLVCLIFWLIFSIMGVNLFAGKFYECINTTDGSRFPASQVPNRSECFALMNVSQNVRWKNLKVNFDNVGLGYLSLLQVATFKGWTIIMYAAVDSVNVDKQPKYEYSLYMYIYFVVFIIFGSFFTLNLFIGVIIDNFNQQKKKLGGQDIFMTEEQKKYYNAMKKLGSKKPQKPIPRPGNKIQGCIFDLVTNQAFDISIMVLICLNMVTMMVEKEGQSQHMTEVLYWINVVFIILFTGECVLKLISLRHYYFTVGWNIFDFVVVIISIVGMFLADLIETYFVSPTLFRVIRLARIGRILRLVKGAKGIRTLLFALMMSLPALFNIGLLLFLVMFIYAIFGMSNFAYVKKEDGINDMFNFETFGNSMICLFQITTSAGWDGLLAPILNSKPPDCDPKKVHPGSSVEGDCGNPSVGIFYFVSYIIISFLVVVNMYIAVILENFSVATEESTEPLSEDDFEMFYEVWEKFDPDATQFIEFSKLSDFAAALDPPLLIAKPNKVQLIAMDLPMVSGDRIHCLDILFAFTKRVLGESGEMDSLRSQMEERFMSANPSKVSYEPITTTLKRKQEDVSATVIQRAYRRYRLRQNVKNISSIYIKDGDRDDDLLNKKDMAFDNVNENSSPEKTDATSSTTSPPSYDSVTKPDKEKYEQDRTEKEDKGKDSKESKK
Assay: Inhibition of human Nav1.7 alpha expressed in HEK293 cells incubated for 5 mins with 6 consecutive train pulses to -10 mV at 0.1 Hz and holding potential of -65 mV by Qube-automated patch clamp assay
Format: cell-based
OUTCOME_MEASURE: IC50 (nM)
Reply with just the number (in nM).

Record excerpt, results attached:
CNC(C)(CNc1cc(F)c(S(=O)(=O)Nc2nccs2)cc1Cl)Cc1ccccc1 (stereo in doubt; 10)	1140
CC1(CNc2cc(F)c(S(=O)(=O)Nc3nccs3)cc2Cl)CCCN1 (stereo in doubt; 4)	2970
CN[C@H](CNc1cc(F)c(S(=O)(=O)Nc2ncc(F)s2)cc1Cl)CC1CCC1	1780

Proceeding to the next compound to report its IC50.
Q) Tell me reported IC50 for "CN(C)[C@H](CNc1cc(F)c(S(=O)(=O)Nc2nccs2)cc1Cl)Cc1ccccc1" , tested with Sodium channel protein type 9 subunit alpha (Homo sapiens, UniProt Q15858).
A) 850
